assay: AUC (0 to infinity) in Sprague-Dawley rat at 30 mg/kg, po measured for 24 hrs by LC-MS/MS-18 analysis; type: ADME, organism-based; parameters: dose 30 mg/kg, time 24 hrs, route po; settings: in vivo
Observation Type: AUC(0-inf)
Put your answer as a value accompanied by its unit after it.

Req: What AUC(0-inf) value was documented for this compound, COc1cc(OC)cc(N(CCNC(C)C)c2ccc3ncc(-c4cnn(CCCCCCC(=O)NO)c4)nc3c2)c1 ?
Resp: 1560 ng·h/mL

* * *

Observation Type: pIC50
The scale used: pIC50 is minus the common logarithm of the concentration in molar units.

Req: // fetch Fibroblast growth factor receptor 3 (Homo sapiens) pIC50 for COc1cc(OC)cc(N(CCNC(C)C)c2ccc3ncc(-c4cnn(CCCCCCC(=O)NO)c4)nc3c2)c1
Resp: 9.34

* * *

molecular target: Histone deacetylase 1 (Homo sapiens)
Sequence (Q13547 whole entry): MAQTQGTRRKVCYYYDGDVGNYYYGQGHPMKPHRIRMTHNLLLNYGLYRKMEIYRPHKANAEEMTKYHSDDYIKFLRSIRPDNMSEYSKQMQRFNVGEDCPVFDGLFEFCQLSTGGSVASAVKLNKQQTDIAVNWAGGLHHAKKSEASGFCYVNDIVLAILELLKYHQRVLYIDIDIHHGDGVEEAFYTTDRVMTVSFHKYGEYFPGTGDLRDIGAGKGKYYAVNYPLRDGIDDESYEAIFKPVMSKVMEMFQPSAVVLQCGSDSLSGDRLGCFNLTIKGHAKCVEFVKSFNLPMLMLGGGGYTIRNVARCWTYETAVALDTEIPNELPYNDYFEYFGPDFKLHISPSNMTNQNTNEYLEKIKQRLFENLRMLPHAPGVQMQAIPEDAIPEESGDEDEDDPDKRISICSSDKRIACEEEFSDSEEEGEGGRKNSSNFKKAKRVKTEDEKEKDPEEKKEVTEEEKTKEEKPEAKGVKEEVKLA
With a cut-off of 200 nM, any IC50 strictly below it is called 1 (yes); any IC50 meeting it or above is called 0 (no).

Req: A record lists COc1cc(OC)cc(N(CC2CC2)c2ccc3ncc(-c4cnn(CCCCCC(=O)NO)c4)nc3c2)c1 . Is its IC50 below 200 nM?
Resp: 1 (yes)

Req: A record lists COc1cc(OC)cc(N(CCNC(C)C)c2ccc3ncc(-c4cnn(CCCCCOc5ccc(C(=O)NO)cc5)c4)nc3c2)c1 . Is its IC50 below 200 nM?
Resp: 0 (no)

Req: A record lists COc1cc(OC)cc(N(CC2CC2)c2ccc3ncc(-c4cnn(CCCCC(=O)NO)c4)nc3c2)c1 . Is its IC50 below 200 nM?
Resp: 1 (yes)

Req: A record lists COc1cc(OC)cc(N(CCNC(C)C)c2ccc3ncc(-c4cnn(CCCCCCCCC(=O)NO)c4)nc3c2)c1 . Is its IC50 below 200 nM?
Resp: 1 (yes)

Req: A record lists COc1cc(OC)cc(N(CCCCCCC(=O)NO)c2ccc3ncc(-c4cnn(C)c4)nc3c2)c1 . Is its IC50 below 200 nM?
Resp: 1 (yes)

Req: A record lists COc1cc(OC)cc(N(CCCCC(=O)NO)c2ccc3ncc(-c4cnn(C)c4)nc3c2)c1 . Is its IC50 below 200 nM?
Resp: 1 (yes)

* * *

assay: AUC (0 to infinity) in Sprague-Dawley rat at 5 mg/kg, ip measured for 24 hrs by LC-MS/MS-18 analysis; assay type: ADME, organism-based; parameters: time 24 hrs, dose 5 mg/kg, route ip; details: in vivo
Observation Type: AUC(0-inf)
Put your answer as a value accompanied by its unit after it.

Req: What AUC(0-inf) value was documented for this molecule, COc1cc(OC)cc(N(CCNC(C)C)c2ccc3ncc(-c4cnn(CCCCCCC(=O)NO)c4)nc3c2)c1 ?
Resp: 491 ng·h/mL

* * *

assay: Half life in Sprague-Dawley rat at 2 mg/kg, iv measured for 24 hrs by LC-MS/MS-18 analysis; type: ADME, organism-based; settings: in vivo
Observation Type: half-life (min)
Please give a number only; it is taken to be in min.

Req: What half-life value was documented for this compound, COc1cc(OC)cc(N(CCNC(C)C)c2ccc3ncc(-c4cnn(CCCCCCC(=O)NO)c4)nc3c2)c1 ?
Resp: 58.8

* * *

experiment: Oral bioavailability in Sprague-Dawley rat at 30 mg/kg measured for 24 hrs by LC-MS/MS-18 analysis; type: ADME, organism-based; conditions: in vivo
Observation Type: bioavailability
Put your answer as a value accompanied by its unit after it.

Req: What bioavailability value was documented for this molecule, COc1cc(OC)cc(N(CCNC(C)C)c2ccc3ncc(-c4cnn(CCCCCCC(=O)NO)c4)nc3c2)c1 ?
Resp: 24.8%

* * *

assay: Cmax in Sprague-Dawley rat at 30 mg/kg, po measured for 24 hrs by LC-MS/MS-18 analysis; assay type: ADME, organism-based; design: dose 30 mg/kg, time 24 hrs, route po; conditions: in vivo
Observation Type: Cmax (ng/mL)
Please give a number only; it is taken to be in ng/mL.

Req: What Cmax value was documented for this compound, COc1cc(OC)cc(N(CCNC(C)C)c2ccc3ncc(-c4cnn(CCCCCCC(=O)NO)c4)nc3c2)c1 ?
Resp: 443

* * *

assay: Tmax in Sprague-Dawley rat at 5 mg/kg, ip measured for 24 hrs by LC-MS/MS-18 analysis; assay type: ADME, organism-based; conditions: in vivo
Observation Type: Tmax
Put your answer as a value accompanied by its unit after it.

Req: What Tmax value was documented for this compound, COc1cc(OC)cc(N(CCNC(C)C)c2ccc3ncc(-c4cnn(CCCCCCC(=O)NO)c4)nc3c2)c1 ?
Resp: 2 h
